target: CDK7/cyclinH/MAT1 trimeric complex (Homo sapiens, UniProt P50613); experiment: In vitro CDK7 assay, potency of irreversible covalent inhibitors (kinact/KI), coupled PK/LDH ADP readout at 340 nm; conditions: CDK7 (20 nM enz.) (KI, μM), 20 nM enzyme
Sequence (P50613 whole entry): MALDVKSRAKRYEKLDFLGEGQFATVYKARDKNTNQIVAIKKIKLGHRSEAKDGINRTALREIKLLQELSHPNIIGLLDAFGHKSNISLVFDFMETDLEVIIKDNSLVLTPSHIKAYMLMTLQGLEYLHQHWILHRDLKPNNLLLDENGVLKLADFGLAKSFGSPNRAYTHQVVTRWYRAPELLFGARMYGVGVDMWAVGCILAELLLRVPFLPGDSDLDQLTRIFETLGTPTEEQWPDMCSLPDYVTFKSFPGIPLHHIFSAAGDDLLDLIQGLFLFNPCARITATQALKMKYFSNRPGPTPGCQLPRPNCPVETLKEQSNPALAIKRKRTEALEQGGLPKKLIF
Sequence (P51946 whole entry partner): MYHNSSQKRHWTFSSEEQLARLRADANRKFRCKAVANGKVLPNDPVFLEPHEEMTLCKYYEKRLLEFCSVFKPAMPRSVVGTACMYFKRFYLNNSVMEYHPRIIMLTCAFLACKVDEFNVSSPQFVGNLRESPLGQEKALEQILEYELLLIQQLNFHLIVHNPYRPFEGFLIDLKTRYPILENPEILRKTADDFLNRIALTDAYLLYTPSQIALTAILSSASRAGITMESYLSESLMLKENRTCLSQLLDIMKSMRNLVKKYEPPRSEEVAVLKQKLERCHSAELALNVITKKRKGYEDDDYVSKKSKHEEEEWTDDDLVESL
Sequence (P51948 whole entry partner): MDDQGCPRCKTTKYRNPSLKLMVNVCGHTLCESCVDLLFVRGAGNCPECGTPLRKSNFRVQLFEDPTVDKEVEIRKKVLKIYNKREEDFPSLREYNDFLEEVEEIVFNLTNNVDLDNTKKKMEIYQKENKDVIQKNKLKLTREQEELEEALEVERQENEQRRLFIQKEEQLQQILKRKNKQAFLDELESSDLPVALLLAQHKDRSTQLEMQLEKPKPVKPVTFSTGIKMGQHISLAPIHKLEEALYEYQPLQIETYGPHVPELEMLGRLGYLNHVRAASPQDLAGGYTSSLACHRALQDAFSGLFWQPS
OUTCOME_MEASURE: Ki (µM)

{"columns": ["COMPOUND", "Ki (µM)"],
 "data": [
  ["C=CC(=O)N1CC(N2CCC(c3ccc4c(c3)Nc3nccc(-c5cnn(C)c5)c3C(C)(C)O4)CC2)C1 [Compound 152]", 0.0242],
  ["C=CC(=O)N1CC[C@@H](N2CCC(c3cc4c(c(C)n3)OCc3c(N5CCOCC5)ccnc3N4)CC2)C1 (single isomer, unassigned) [Compound 282]", 0.0397],
  ["CC#CC(=O)N1CC(N2CCC(c3cc4c(c(C5CC5)n3)O[C@@H](C)c3c(N5CCOCC5)ccnc3N4)CC2)C1 (single isomer, unassigned)", 0.0867]
]}

a = C=C(F)C(=O)N1CC(N2CCC(c3cc4c(c(C)n3)OCc3c(-c5cnn(C)c5)ccnc3N4)CC2)C1
b = CC#CC(=O)N1CCN(C2CCN(c3cc4c(c(C)n3)OCc3c(N5CCOCC5)ccnc3N4)CC2)CC1
Between item a and item b , which reported Ki is smaller? // output: label of the selected item
a
(a: 0.0196 µM, b: 0.0643 µM)

a = CC#CC(=O)N1CC(n2cc(-c3cc4c(c(C)n3)OC(C)c3c(N5CCOCC5)ccnc3N4)cn2)C1 (stereo not shown)
b = C=CC(=O)N1CC(N2CCC(c3ccc4c(c3)Nc3nccc(-c5cnn(C)c5)c3[C@H](C)O4)CC2)C1 (single isomer, unassigned) [Compound 128]
c = C=CC(=O)N1CCC(N2CC(c3cc(F)c4c(c3)Nc3nccc(-c5cnn(C)c5)c3CO4)C2)CC1
Task for the reader: rank each entry by its Ki, from the minimum upward. Use the labels to give the ranking in the order requested.
c, a, b

P = C=CC(=O)N1CC[C@@H](N2CC(c3cc4c(c(C#N)n3)O[C@@H](C)c3c(N5CCOCC5)ccnc3N4)C2)C1 (single isomer, unassigned)
Q = CC#CC(=O)N1CC(N2CCC(c3cc4c(c(-c5ncc[nH]5)n3)OCc3c(N5CCOCC5)ccnc3N4)CC2)C1
// max by Ki over [ P , Q ] // output: label of the selected item
P

A = C=CC(=O)N1CC[C@H](N2CC(c3cc(C)c4c(c3)Nc3nccc(-c5cnn(C)c5)c3CO4)C2)C1 (single isomer, unassigned) [Compound 361]
B = C=CC(=O)N1CC(N2CCC[C@H](c3ccc4c(c3)Nc3nccc(N5CCOCC5)c3CO4)C2)C1 (single isomer, unassigned)
C = C=CC(=O)N1CC[C@H](N2CC(c3cc(C)c4c(c3)Nc3nccc(N5CCOCC5)c3[C@H](C)O4)C2)C1 (single isomer, unassigned)
Kindly order the items shown according to Ki, from the highest value down. Use the labels to give the ranking in the order requested.
C, B, A

###

biological target: CDK7/cyclinH/MAT1 trimeric complex (Homo sapiens); test: In vitro CDK7 assay, potency of irreversible covalent inhibitors (kinact/KI), coupled PK/LDH ADP readout at 340 nm; settings: read-out: CDK7 (20 nM enz.) (kinact/KI, M^−1*s^−1), 20 nM enzyme
OUTCOME_MEASURE: kinact/KI (M⁻¹ s⁻¹)

{"columns": ["COMPOUND", "MEASURED_VALUE"],
 "data": [
  ["CC#CC(=O)N1CC[C@H](N2CC(c3cc4c(c(C5CC5)n3)O[C@@H](C)c3c(N5CCOCC5)ccnc3N4)C2)C1 (single isomer, unassigned)", 761]
]}

a = C=CC(=O)N1CC(N2CC(c3cc4c(c(C)n3)O[C@H](C)c3c(N5CCOCC5)ccnc3N4)C2)C1 (single isomer, unassigned)
b = C=CC(=O)N1CC(N2CCC(c3ccc4c(c3)Nc3nccc(N5CCc6nn(C)cc6C5)c3CO4)CC2)C1
c = C=CC(=O)N1CC(N2CCC[C@@H](c3ccc4c(c3)Nc3nccc(N5CCOCC5)c3CO4)C2)C1 (single isomer, unassigned)
Task for the reader: rank each entry by its kinact/KI, from the minimum upward. Use the labels to give the ranking in the order requested.
c, b, a

P = C=CC(=O)N1CC(N2CCC(c3cc4c(c(C)n3)O[C@H](C)c3c(C5CCOCC5)ccnc3N4)CC2)C1 (single isomer, unassigned) [Compound 246]
Q = CC#CC(=O)N1CC(N2CCC(c3cc4c(c(C)n3)OCc3c(C5CCOCC5)ccnc3N4)CC2)C1
Between item P and item Q , which reported kinact/KI is smaller? // output: label of the selected item
Q
(Q: 300 M⁻¹ s⁻¹, P: 887 M⁻¹ s⁻¹)
